- tested-on: Human recombinant MMP-2 (Homo sapiens)
- Construct: made in house; host or cells: MMP-2-transfected p2AHT2 cells
- Sequence (P08253 110-660): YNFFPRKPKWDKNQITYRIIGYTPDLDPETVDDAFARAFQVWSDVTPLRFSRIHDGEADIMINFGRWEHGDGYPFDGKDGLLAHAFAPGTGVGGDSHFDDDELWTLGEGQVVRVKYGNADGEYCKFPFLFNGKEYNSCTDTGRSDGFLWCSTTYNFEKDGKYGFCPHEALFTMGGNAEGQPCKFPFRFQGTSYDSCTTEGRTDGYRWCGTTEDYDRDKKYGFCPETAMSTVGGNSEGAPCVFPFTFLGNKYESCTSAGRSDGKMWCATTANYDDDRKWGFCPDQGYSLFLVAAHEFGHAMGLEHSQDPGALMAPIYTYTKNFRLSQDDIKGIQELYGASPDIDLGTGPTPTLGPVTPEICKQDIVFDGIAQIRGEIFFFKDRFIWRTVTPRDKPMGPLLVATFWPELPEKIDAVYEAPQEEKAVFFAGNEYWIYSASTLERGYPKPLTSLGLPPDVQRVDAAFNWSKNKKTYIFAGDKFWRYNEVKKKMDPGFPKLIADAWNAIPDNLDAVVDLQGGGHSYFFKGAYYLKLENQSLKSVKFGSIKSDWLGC
- assay: In vitro MMP inhibition analysis (fluorogenic peptide substrate cleavage), Ki
- Type: biochemical
- assay-setup: Table 1
measurement-name: Ki
Show the value, then the unit it is measured in.

[
  {
    "molecule": "O=C(NO)C1(S(=O)(=O)c2ccc(-c3ccc(CCCC(F)(F)F)cc3)cc2)CCN(C2CC2)CC1 [Example 44]",
    "measurement-name": "Ki",
    "result": "0.48 nM"
  },
  {
    "molecule": "O=C(NO)C1(S(=O)(=O)c2ccc(-c3ccc(CCC(F)(F)C(F)(F)F)cn3)cc2)CCN(C2CC2)CC1 [Example 50]",
    "measurement-name": "Ki",
    "result": "0.19 nM"
  },
  {
    "molecule": "O=C(NO)C1(S(=O)(=O)c2ccc(-c3cnc(CCC4CC4)cn3)cc2)CCOCC1 [Example 49]",
    "measurement-name": "Ki",
    "result": "2.36 nM"
  }
]

Below: the item to evaluate.
The recorded Ki for entry COCCN1CCC(C(=O)NO)(S(=O)(=O)c2ccc(-c3ccc(CCCC(F)(F)F)cn3)cc2)CC1 [Example 54] equals 0.12 nM

----------
- tested-on: Human recombinant MMP-13 (Homo sapiens)
- Construct: made in house; host or cells: baculovirus / insect cells
- assay: In vitro MMP inhibition analysis (fluorogenic peptide substrate cleavage), Ki
- Assay type: biochemical
- assay-setup: Table 1
Catalogue of molecules with associated Ki
Write down the numeric answer in nM and omit the unit.

[
  {
    "molecule": "COCCN1CCC(C(=O)NO)(S(=O)(=O)c2ccc(-c3ccc(CCCC(F)(F)F)cn3)cc2)CC1",
    "measurement-name": "Ki",
    "unit-label": "nM",
    "result": 0.3
  }
]

Observed Ki, Human recombinant MMP-13 (Homo sapiens), O=C(NO)C1(S(=O)(=O)c2ccc(-c3ccc(CCCC(F)(F)F)cn3)cc2)CCOCC1 : 0.082

Simply: O=C(NO)C1(S(=O)(=O)c2ccc(-c3ccc(CCC(F)(F)C(F)(F)F)cc3)cc2)CCN(C2CC2)CC1 , Human recombinant MMP-13 (Homo sapiens), Ki = 0.46

COCCN1CCC(C(=O)NO)(S(=O)(=O)c2ccc(-c3ccc(CCC(C)(F)F)cn3)cc2)CC1 on Human recombinant MMP-13 (Homo sapiens) gives Ki = 0.07

Here O=C(NO)C1(S(=O)(=O)c2ccc(-c3ccc(OC(F)(F)C(F)F)cc3)cc2)CCN(CCl)CC1 was tested on Human recombinant MMP-13 (Homo sapiens), and its Ki came to 0.02

// returns Ki for CCN1CCC(C(=O)NO)(S(=O)(=O)c2ccc(-c3ccc(CCC(F)(F)C(F)(F)F)cn3)cc2)CC1 with Human recombinant MMP-13 (Homo sapiens); value = 0.07

Fill in: Human recombinant MMP-13 (Homo sapiens) Ki for O=C(NO)C1(S(=O)(=O)c2ccc(-c3cnc(CCCC(F)(F)F)cn3)cc2)CCOCC1 = 0.45

Reading of Ki for COCCN1CCC(C(=O)NO)(S(=O)(=O)c2ccc(-c3ccc(OC(F)(F)C(F)F)cc3)cc2)CC1 with Human recombinant MMP-13 (Homo sapiens): 0.011

The observed Ki for O=C(NO)C1(S(=O)(=O)c2ccc(-c3ccc(OC(F)(F)C(F)F)cc3)cc2)CCOCC1 when tested with Human recombinant MMP-13 (Homo sapiens) stands at 0.0509

Fill in: Human recombinant MMP-13 (Homo sapiens) Ki for COCCC(C(=O)NO)S(=O)(=O)c1ccc(-c2ccc(CCCC(F)(F)F)cc2)cc1 (stereo not shown) = 0.4

----------
Catalogue of compounds with associated Ki
- tested-on: Human recombinant MMP-1 (Homo sapiens, UniProt P03956)
- Construct: made in house; host or cells: MMP-1-transfected HT-1080 cells (spent media)
- Sequence (P03956 100-469): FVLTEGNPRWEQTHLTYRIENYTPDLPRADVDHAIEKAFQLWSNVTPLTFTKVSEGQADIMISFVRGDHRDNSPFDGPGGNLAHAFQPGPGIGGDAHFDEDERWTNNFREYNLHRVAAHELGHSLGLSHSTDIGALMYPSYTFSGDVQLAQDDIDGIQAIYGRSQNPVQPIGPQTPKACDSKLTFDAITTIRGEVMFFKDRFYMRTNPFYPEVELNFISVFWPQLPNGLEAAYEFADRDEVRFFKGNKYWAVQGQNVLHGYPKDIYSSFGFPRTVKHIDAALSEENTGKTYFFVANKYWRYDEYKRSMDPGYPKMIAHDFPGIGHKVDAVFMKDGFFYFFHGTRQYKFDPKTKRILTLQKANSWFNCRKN
- assay: In vitro MMP inhibition analysis (fluorogenic peptide substrate cleavage), Ki
- Assay type: biochemical
- assay-setup: Table 2

[
  {
    "compound": "CCN1CCC(C(=O)NO)(S(=O)(=O)c2ccc(-c3cnc(CCCC(F)(F)F)cn3)cc2)CC1",
    "result": "> 10 µM"
  },
  {
    "compound": "O=C(NO)C1(S(=O)(=O)c2ccc(-c3cnc(N4CCCC4)cn3)cc2)CCOCC1",
    "result": "> 10 µM"
  },
  {
    "compound": "CC(C)(C)CCNc1cnc(-c2ccc(S(=O)(=O)C3(C(=O)NO)CCOCC3)cc2)cn1",
    "result": "> 1.25 µM"
  }
]

Entry COCCOC1CCC(C(=O)NO)(S(=O)(=O)c2ccc(-c3cnc(CCCC(F)(F)F)cn3)cc2)CC1 (stereo not shown) ; Ki = > 10 µM

----------
Reported Ki is given for each of the following molecules.
- tested-on: Human recombinant MMP-1 (Homo sapiens, UniProt P03956)
- Construct: made in house; host or cells: MMP-1-transfected HT-1080 cells (spent media)
- assay: In vitro MMP inhibition analysis (fluorogenic peptide substrate cleavage), Ki
- Type: biochemical
- assay-setup: Table 1

[
  {
    "molecule": "O=C(NO)C1(S(=O)(=O)c2ccc(-c3cnc(CCCC(F)(F)F)cn3)cc2)CCOCC1 [Example 58]",
    "tested-on": "Human recombinant MMP-1 (Homo sapiens, UniProt P03956)",
    "result": "> 10 µM"
  }
]

Log: Human recombinant MMP-1 (Homo sapiens, UniProt P03956), molecule CCOCCOc1ccc(-c2ccc(S(=O)(=O)C3(C(=O)NO)CCOCC3)cc2)cc1 [Example 37] , Ki = 1.45 µM

Record CC(C)(C)N1CCC(C(=O)NO)(S(=O)(=O)c2ccc(-c3ccc(CCCC(F)(F)F)cc3)cc2)CC1 [Example 48] ; system Human recombinant MMP-1 (Homo sapiens, UniProt P03956); Ki = > 10 µM

Per the reported Human recombinant MMP-1 (Homo sapiens, UniProt P03956) data, O=C(NO)C1(S(=O)(=O)c2ccc(-c3ccc(CCCC(F)(F)F)cn3)cc2)CCOCC1 [Example 69] has Ki of 3.53 µM

# value of Ki, Human recombinant MMP-1 (Homo sapiens, UniProt P03956), item O=C(NO)C1(S(=O)(=O)c2ccc(-c3ccc(CCCC(F)(F)F)cc3)cc2)CCN(C2CC2)CC1 [Example 44] = 8.69 µM

With Human recombinant MMP-1 (Homo sapiens, UniProt P03956) as the test system, CC(F)(F)CCc1cnc(-c2ccc(S(=O)(=O)C3(C(=O)NO)CCOCC3)cc2)cn1 [Example 60] showed Ki of > 10 µM

----------
pKi values, listed per item
- tested-on: Human recombinant MMP-13 (Homo sapiens, UniProt P45452)
- Construct: made in house; host or cells: baculovirus / insect cells
- assay: In vitro MMP inhibition analysis (fluorogenic peptide substrate cleavage), Ki
- Type: biochemical
- assay-setup: Table 2
- Description: Several compounds and salts were analyzed in an in vitro assay to determine their ability to inhibit the MMP cleavage of peptide substrates. Inhibition constant (Ki) were calculated from the assayed compound-MMP interactions. […] The assays from which the Ki determinations were made were performed as follows. […] In the absence of MMP inhibitory activity, substrate (I) was cleaved at the Gly-Leu bond resulting in an increase of relative fluorescence. […]
Would you please state pKi, meaning minus log10 of the concentration in mol/L, as a bare number?

[
  {
    "compound": "O=C(NO)C1(S(=O)(=O)c2ccc(-c3cnc(C4CCCC4)cn3)cc2)CCOCC1 [Example 162]",
    "pKi": 9.02
  },
  {
    "compound": "O=C(NO)C1(S(=O)(=O)c2ccc(-c3ccc(-n4ccnc4)cc3)cc2)CCOCC1 [Example 127]",
    "pKi": 10.52
  },
  {
    "compound": "O=C(NO)C1(S(=O)(=O)c2ccc(-c3cnc(N4CCCC4)cn3)cc2)CCOCC1 [Example 138]",
    "pKi": 9.24
  },
  {
    "compound": "CC(C)(C)NC(=O)c1ccc(-c2ccc(S(=O)(=O)C3(C(=O)NO)CCOCC3)cc2)nc1 [Example 205]",
    "pKi": 8.92
  },
  {
    "compound": "CC(C)Cc1ccc(-c2ccc(S(=O)(=O)C3(C(=O)NO)CCOCC3)cc2)nc1 [Example 103]",
    "pKi": 9.93
  }
]

pKi in this record for O=C(NO)C1(S(=O)(=O)c2ccc(-c3ccc(CCC(F)(F)C(F)(F)F)cn3)cc2)CCOCC1 [Example 201] : 10.70

Recorded result, O=C(NC1CCCC1)c1ccc(-c2ccc(S(=O)(=O)C3(C(=O)NO)CCOCC3)cc2)nc1 [Example 198] , pKi: 9.49

// O=C(NO)C1(S(=O)(=O)c2ccc(-c3ccc(-c4ccccc4)cn3)cc2)CCN(C2CC2)CC1 [Example 151] : pKi value = 10.30

Given item CCN1CCC(C(=O)NO)(S(=O)(=O)c2ccc(-c3noc(-c4ccc(F)cc4)n3)cc2)CC1 [Example 147] , the value recorded as its pKi is 8.59

Noted for Cc1ccc(-c2ccc(S(=O)(=O)C3(C(=O)NO)CCOCC3)cc2)nc1 [Example 81] : its pKi reads 9.93

pKi reading for CC(C)CNC(=O)c1cnc(-c2ccc(S(=O)(=O)C3(C(=O)NO)CCOCC3)cc2)cn1 [Example 186] : 9.26

Reported pKi for O=C(NO)C1(S(=O)(=O)c2ccc(-c3ccc(-c4ccccc4)cc3)cc2)CCOCC1 [Example 104] was 10.49

# pKi of CC(C)NC(=O)c1ccc(-c2ccc(S(=O)(=O)C3(C(=O)NO)CCOCC3)cc2)nc1 [Example 204] = 9.12

Lab note: CN1CCC(C(=O)NO)(S(=O)(=O)c2ccc(-c3ccc(OC(F)(F)C(F)F)cc3)cc2)CC1 [Example 146] gave pKi of 9.82

The reported pKi of the compound CC[C@H](C)NC(=O)c1ccc(-c2ccc(S(=O)(=O)C3(C(=O)NO)CCOCC3)cc2)nc1 [Example 208] was 9.15
